Target: T1, S100B (human, UniProt P04271 1-92)
T1 chain: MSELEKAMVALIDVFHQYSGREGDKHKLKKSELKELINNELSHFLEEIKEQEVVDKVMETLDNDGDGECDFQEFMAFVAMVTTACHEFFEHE
Assay: ITC; 310 K
pKd: −log10 of the molar value.
assay readout: pKd

[P] TRTKIDWNKILS [CapZ (265-276) peptide]
[Q] NQVRPKLPLLKILHAAGAQ [MDM4 (25-43) peptide]
Select the item with the higher value of pKd from the options P and Q listed. // caller expects the label of the chosen entry Q
